Molecular target: T1, human TNFR14 (human, UniProt Q92956 39-283)
T1 construct: whole, on cells
T1 sequence (looked up): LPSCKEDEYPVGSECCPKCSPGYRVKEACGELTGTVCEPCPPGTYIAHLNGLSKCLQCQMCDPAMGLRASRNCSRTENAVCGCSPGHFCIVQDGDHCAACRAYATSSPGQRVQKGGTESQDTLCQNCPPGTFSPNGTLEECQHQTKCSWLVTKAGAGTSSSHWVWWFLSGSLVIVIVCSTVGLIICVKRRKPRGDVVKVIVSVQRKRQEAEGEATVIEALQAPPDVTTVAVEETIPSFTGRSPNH
Experiment: flow cytometry, HEK293 transfectants

[
  {
    "binder": "4G7 (antibody, IgG4, V domains shown, also called 4869-1) VH: QVQLVQSGAEVKKPGASVKVSCKASGYTFAGYYMHWVRQAPGQGLEWMGWINPDSGGTNFAQQFQGRVTMTRDTSISTAYMEVSRLRSDDTAVFYCAREKITMTGIYFDYWGQGTLVTVSS VL: DIQMTQSPSSLSASVGDILTITCRASQNITTYLNWYQQKPGKAPNLLISAASRLRSGVPSRFSGSGSGTDFTLTISSLQPVDFTTFYCQQTFTTPWTFGQGTKVEIKR",
    "binding result": "no binding"
  },
  {
    "binder": "29H10 (antibody, V domains shown, also called 4877-1) VH: QVQLVQSGAEVTKPGASVKVSCKASGYTFAGYYMHWVRQAPGQGLEWMGWINPHSGGTNYAQKFQDRVTMTRDTSINTAYMELSRLRSDDTAVYYCARERISMVRGVGHNWFAPWGQGTLVTVSS VL: DIQMTQSPSSLSASVGDRVTITCRASQDISNNLAWFQQKPGKPPKSLMYAASSLHSGVPSTFSGSGSGTDFTFTISSLQPEDFATYYCQQYNSYPLTFGGGTKVEIRR",
    "binding result": "no binding"
  },
  {
    "binder": "37A6 (antibody, IgG4, V domains shown, also called 4865-1) VH: QVQLVESGGGLVKPGGSLRLSCAASEFTFSDYYMSWIRQAPGKGLEWVSYISRSGDTIYYADSVKGRFTISRDNAKNSLYLQMNGLRAEDTAVYYCARDLAAGATGGLDCWGQGTLVTVSS VL: SYELTQPPSVSVSPGQTASITCSGERLGNKYICWYQQKPGQSPVLVIYQDFKRPSGIPERFSGSNSGITATLTISGTQAMDEADYYCQAWDSRTVVFGGGTKLTVLG",
    "binding result": "no binding"
  }
]
